# PROTOCOL DESCRIPTION: In vivo pharmacokinetic studies
# Set-up: species or system Sprague-Dawley rats
# ASSAY CONDITIONS: female, Sprague-Dawley, rat, plasma, iv, 2.5 mg/kg
PROPERTY LABEL: AUC(0-t) (ng·h/mL)
Please give a number only; it is taken to be in ng·h/mL.

*Q* Quick one: AUC(0-t) for `CS(=O)(=O)N1CCN(Cc2cc3nc(-c4cccc5[nH]ncc45)nc(N4CCOCC4)c3s2)CC1` ?
*A* 530

* * *

# PROTOCOL DESCRIPTION: In vivo pharmacokinetic studies
# Parameters: species or system Sprague-Dawley rats
# ASSAY CONDITIONS: female, Sprague-Dawley, rat, plasma, iv, 2.5 mg/kg
PROPERTY LABEL: Vd (L/kg)
Please give a number only; it is taken to be in L/kg.

*Q* Quick one: Vd for `CS(=O)(=O)N1CCN(Cc2cc3nc(-c4cccc5[nH]ncc45)nc(N4CCOCC4)c3s2)CC1` ?
*A* 19.7

* * *

# PROTOCOL DESCRIPTION: In vivo pharmacokinetic studies
# Parameters: species or system Sprague-Dawley rats
# ASSAY CONDITIONS: female, Sprague-Dawley, rat, plasma, iv, 5 mg/kg
PROPERTY LABEL: clearance (mL/min/kg)
Please give a number only; it is taken to be in mL/min/kg.

*Q* Quick one: clearance for `CC(=O)O[C@@]12CO[C@@H]1C[C@H](O)[C@@]1(C)C(=O)[C@H](O)C3=C(C)[C@@H](OC(=O)[C@H](O)[C@@H](NC(=O)OC(C)(C)C)c4ccccc4)C[C@@](O)([C@@H](OC(=O)c4ccccc4)[C@H]21)C3(C)C` ?
*A* 160

* * *

# PROTOCOL DESCRIPTION: In vivo pharmacokinetic studies
# Set-up: species or system Sprague-Dawley rats
# ASSAY CONDITIONS: female, Sprague-Dawley, rat, plasma, iv, 5 mg/kg
PROPERTY LABEL: Vd (L/kg)
Please give a number only; it is taken to be in L/kg.

*Q* Quick one: Vd for `CC(=O)O[C@@]12CO[C@@H]1C[C@H](O)[C@@]1(C)C(=O)[C@H](O)C3=C(C)[C@@H](OC(=O)[C@H](O)[C@@H](NC(=O)OC(C)(C)C)c4ccccc4)C[C@@](O)([C@@H](OC(=O)c4ccccc4)[C@H]21)C3(C)C` ?
*A* 73.4

* * *

# PROTOCOL DESCRIPTION: In vivo pharmacokinetic studies
# Set-up: species or system Sprague-Dawley rats
# ASSAY CONDITIONS: female, Sprague-Dawley, rat, plasma, iv, 5 mg/kg
PROPERTY LABEL: AUC(0-t) (ng·h/mL)
Please give a number only; it is taken to be in ng·h/mL.

*Q* Quick one: AUC(0-t) for CC(=O)O[C@@]12CO[C@@H]1C[C@H](O)[C@@]1(C)C(=O)[C@H](O)C3=C(C)[C@@H](OC(=O)[C@H](O)[C@@H](NC(=O)OC(C)(C)C)c4ccccc4)C[C@@](O)([C@@H](OC(=O)c4ccccc4)[C@H]21)C3(C)C [DTX, docetaxel] ?
*A* 487

* * *

# PROTOCOL DESCRIPTION: In vivo pharmacokinetic studies
# Parameters: species or system Sprague-Dawley rats
# ASSAY CONDITIONS: female, Sprague-Dawley, rat, plasma, iv, 2.5 mg/kg
PROPERTY LABEL: AUC(0-inf) (ng·h/mL)
Please give a number only; it is taken to be in ng·h/mL.

*Q* Quick one: AUC(0-inf) for CS(=O)(=O)N1CCN(Cc2cc3nc(-c4cccc5[nH]ncc45)nc(N4CCOCC4)c3s2)CC1 [PIC, pictilisib] ?
*A* 536
